Origin of measurements: patent US12291518B2

experimental target: THR beta-LBD (Homo sapiens)
Construct: THR beta-LBD (the final concentration is 0.5 nM) was added to the 384-well assay plate; purchased Invitrogen PV4686
Sequence (P10828 217-461 limits assumed): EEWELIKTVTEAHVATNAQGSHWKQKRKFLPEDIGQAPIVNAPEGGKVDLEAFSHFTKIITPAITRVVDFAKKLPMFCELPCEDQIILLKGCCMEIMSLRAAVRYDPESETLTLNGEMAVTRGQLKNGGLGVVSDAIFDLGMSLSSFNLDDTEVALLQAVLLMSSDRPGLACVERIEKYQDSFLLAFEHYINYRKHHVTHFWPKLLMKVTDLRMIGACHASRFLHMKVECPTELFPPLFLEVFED
procedure details: THR-β Coactivator Peptide Recruitment Assay (LanthaScreen TR-FRET)
Type: biochemical
study conditions: TR-FRET coactivator recruitment, THR beta-LBD 0.5 nM; read-out: THRβ EC50
attribute measured: EC50

Examples with answers:
# compound, EC50
measured = [
    ("N#Cc1nn(-c2cc(Cl)c(Oc3cc(S(=O)(=O)NC4CC4)c(O)cn3)c(Cl)c2)c(=O)[nH]c1=O [Compound 114]", "< 2 nM"),
    ("N#C[C@H]1C[C@H](NS(=O)(=O)c2cc(Oc3c(Cl)cc(-n4nc(C(F)F)c(=O)[nH]c4=O)cc3Cl)ncc2O)C1 [Compound 130]", "2 to 20 nM"),
    ("O=c1[nH]c(=O)n(-c2cc(Cl)c(Cc3ccc(O)c(S(=O)(=O)NC4CS(=O)(=O)C4)c3)c(Cl)c2)nc1C(F)F [Compound 152]", "< 2 nM"),
    ("O=C(N[C@H]1CCN(S(=O)(=O)c2cc(Oc3c(Cl)cc(-n4nc(C(F)F)c(=O)[nH]c4=O)cc3Cl)ccc2O)C1)C1CC1 [Compound 56]", "< 2 nM"),
    ("O=C(CNS(=O)(=O)c1cc(Oc2c(Cl)cc(-n3nc(C(F)F)c(=O)[nH]c3=O)cc2Cl)ccc1O)N1CCC1 [Compound 63]", "20 to 100 nM"),
]

Proceed to the following item.
Qu. Return EC50 (reported value) for this compound: CN1CCN(S(=O)(=O)c2cc(Oc3c(Cl)cc(-n4nc(C(F)F)c(=O)[nH]c4=O)cc3Cl)ccc2O)CC1=O [Compound 33]
Ans. < 2 nM

###

Measured EC50, listed per entry.
experimental target: THR alpha-LBD (Homo sapiens, UniProt P10827)
Construct: except that THR alpha-LBD of a final concentration 0.25 nM was used; purchased Invitrogen PV4687
Sequence (P10827 163-410 isoform P10827-2 limits assumed, other chains not shown): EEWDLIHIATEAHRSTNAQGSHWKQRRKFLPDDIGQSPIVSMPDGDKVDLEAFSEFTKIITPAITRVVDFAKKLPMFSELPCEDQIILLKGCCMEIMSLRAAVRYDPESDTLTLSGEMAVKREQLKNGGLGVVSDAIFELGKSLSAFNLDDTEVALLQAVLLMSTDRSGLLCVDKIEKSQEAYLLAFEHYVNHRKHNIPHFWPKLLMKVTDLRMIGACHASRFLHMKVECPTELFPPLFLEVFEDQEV
procedure details: THR-α Coactivator Peptide Recruitment Assay (LanthaScreen TR-FRET)
Format: biochemical

# molecule, EC50
measured = [
    ("O=C(N[C@H]1C[C@H](NS(=O)(=O)c2cc(Oc3c(Cl)cc(-n4nc(C(F)F)c(=O)[nH]c4=O)cc3Cl)ccc2O)C1)C1CC1", "200 to 1000 nM"),
]

Proceed to the following item.
Qu. Return EC50 (reported value) for this molecule: N#CC1CC(N[S@SP3](=O)(=O)c2cc(Oc3c(Cl)cc(-n4nc(C(F)F)c(=O)[nH]c4=O)cc3Cl)ccc2O)C1 (centres unmarked)
Ans. 2 to 200 nM

###

experimental target: THR alpha-LBD (Homo sapiens, UniProt P10827)
Construct: except that THR alpha-LBD of a final concentration 0.25 nM was used; purchased Invitrogen PV4687
procedure details: THR-α Coactivator Peptide Recruitment Assay (LanthaScreen TR-FRET)
Assay type: biochemical
study conditions: TR-FRET coactivator recruitment, THR alpha-LBD 0.25 nM; read-out: THRα EC50
attribute measured: EC50

Examples with answers:
# compound, EC50
data = [
    ("O=C(NC1CCCC1)C1(NS(=O)(=O)c2cc(Oc3c(Cl)cc(-n4nc(C(F)F)c(=O)[nH]c4=O)cc3Cl)ncc2O)CC1", "> 1000 nM"),
    ("C[C@@H](CO)NS(=O)(=O)c1cc(Oc2c(Cl)cc(-n3nc(C(F)F)c(=O)[nH]c3=O)cc2Cl)ccc1O", "2 to 200 nM"),
    ("O=c1[nH]c(=O)n(-c2cc(Cl)c(Oc3ccc(O)c(S(=O)(=O)N[C@@H]4CC[C@@H](O)C4)c3)c(Cl)c2)nc1C(F)F (racemic)", "200 to 1000 nM"),
    ("O=C(NCC(F)F)C1(NS(=O)(=O)c2cc(Oc3c(Cl)cc(-n4nc(C(F)F)c(=O)[nH]c4=O)cc3Cl)ccc2O)CC1", "200 to 1000 nM"),
    ("N#C[C@H]1C[C@@H](NS(=O)(=O)c2cc(Oc3c(Cl)cc(-n4nc(C(F)F)c(=O)[nH]c4=O)cc3Cl)ncc2O)C1", "200 to 1000 nM"),
]

Proceed to the following item.
Qu. Find EC50 for `O=c1[nH]c(=O)n(-c2cc(Cl)c(Oc3cc(S(=O)(=O)N4CC(F)(F)C4)c(O)cn3)c(Cl)c2)nc1C(F)F` on THR alpha-LBD (Homo sapiens, UniProt P10827) and write it down.
Ans. 2 to 200 nM
